Exercise: for every item that follows, state its recorded M3 FDSS PA %.
- targetDesc: human cloned CHRM3 receptor (Homo sapiens, UniProt P20309)
- Construct: expressed in transfected cells; host or cells: CHO-K1 (M3_CHO)
- Sequence (P20309 whole entry): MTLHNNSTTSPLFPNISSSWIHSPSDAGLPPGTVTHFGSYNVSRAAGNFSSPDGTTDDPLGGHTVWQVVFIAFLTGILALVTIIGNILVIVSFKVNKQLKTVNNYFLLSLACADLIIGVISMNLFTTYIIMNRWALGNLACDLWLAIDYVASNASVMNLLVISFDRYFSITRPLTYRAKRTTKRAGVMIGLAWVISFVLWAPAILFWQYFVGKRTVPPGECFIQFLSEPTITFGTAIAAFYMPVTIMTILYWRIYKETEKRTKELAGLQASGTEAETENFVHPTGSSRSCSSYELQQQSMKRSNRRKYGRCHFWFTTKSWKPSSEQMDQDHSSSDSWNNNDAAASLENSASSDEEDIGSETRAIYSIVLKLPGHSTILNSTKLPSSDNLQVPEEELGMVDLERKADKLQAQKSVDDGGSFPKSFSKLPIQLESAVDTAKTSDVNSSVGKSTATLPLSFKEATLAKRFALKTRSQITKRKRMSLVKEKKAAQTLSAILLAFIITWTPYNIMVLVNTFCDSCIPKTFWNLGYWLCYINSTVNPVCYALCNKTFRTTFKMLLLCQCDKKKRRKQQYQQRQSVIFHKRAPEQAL
- procedureText: CHRM3 Ca++ Flux Assay (M3_CHO cells, agonist mode)
- Format: cell-based
- conditionsUsed: Percent Activity (PA) measured to EC100 of Carbachol
Write the number in % without appending the unit.

Inquiry: Dear colleague, I am looking for the recorded M3 FDSS PA % of the following compound: CC(C)(O)[C@H]1C[C@H](Oc2ccc(F)cc2C2CCN([C@@H]3COC4(C3)CN(c3nnco3)C4)CC2)C1 (single isomer, unassigned) [Example 2W]
Reply text: 0

Inquiry: Dear colleague, I am looking for the recorded M3 FDSS PA % of the following compound: OC[C@H]1C[C@H](Oc2ccc(F)cc2C2CCN([C@@H]3COC4(C3)CN(c3nnco3)C4)CC2)C1 (single isomer, unassigned) [Example 2HH]
Reply text: 0

Inquiry: Dear colleague, I am looking for the recorded M3 FDSS PA % of the following compound: CC(C)(O)[C@H]1C[C@@H](Oc2ccc(F)cc2C2CCN([C@@H]3COC4(C3)CN(c3ncco3)C4)CC2)C1 (single isomer, unassigned) [Example 4T]
Reply text: 0

Inquiry: Dear colleague, I am looking for the recorded M3 FDSS PA % of the following compound: Fc1ccc(OC[C@H]2CCO2)c(C2CCN([C@@H]3COC4(C3)CN(c3nncs3)C4)CC2)c1.O=C(O)C(F)(F)F (single isomer, unassigned) [Example 2C]
Reply text: 0

Inquiry: Dear colleague, I am looking for the recorded M3 FDSS PA % of the following compound: CC1(C)C[C@@H](Oc2ccc(F)cc2C2CCN([C@@H]3COC4(C3)CN(c3nnco3)C4)CC2)CO1 (single isomer, unassigned) [Example 2O]
Reply text: 0

Inquiry: Dear colleague, I am looking for the recorded M3 FDSS PA % of the following compound: O[C@H]1CC[C@@H](c2ccc(F)cc2C2CCN([C@@H]3COC4(C3)CN(c3nnco3)C4)CC2)CC1 (single isomer, unassigned) [Example 3H]
Reply text: 20

* * *

- targetDesc: human cloned CHRM3 receptor (Homo sapiens, UniProt P20309)
- Construct: expressed in transfected cells; host or cells: CHO-K1 (M3_CHO)
- procedureText: CHRM3 Ca++ Flux Assay (M3_CHO cells, agonist mode)
- Format: cell-based
- conditionsUsed: Percent Activity (PA) measured to EC100 of Carbachol, read-out: M3 FDSS PA %
Exercise: for every item that follows, state its recorded Emax.
Write the number in % without appending the unit.

Inquiry: Dear colleague, I am looking for the recorded Emax of the following compound: `c1ccc(C2CCN([C@@H]3COC4(C3)CN(c3ncco3)C4)CC2)c(OC2COC2)c1`
Reply text: 0

Inquiry: Dear colleague, I am looking for the recorded Emax of the following compound: `Fc1cc(O[C@@H]2CCOC2)c(C2CCN([C@@H]3COC4(C3)CN(c3nncs3)C4)CC2)cc1F`
Reply text: 0

Inquiry: Dear colleague, I am looking for the recorded Emax of the following compound: `c1ccc(C2CCN([C@@H]3COC4(C3)CN(c3nnco3)C4)CC2)c(OC2COC2)c1`
Reply text: 0

Inquiry: Dear colleague, I am looking for the recorded Emax of the following compound: `COc1ccccc1C1CCN([C@@H]2COC3(C2)CN(c2ncns2)C3)CC1`
Reply text: 0
